# system: hCA VII (Homo sapiens, UniProt P43166)
# Construct: gene CA7; recombinant, obtained in-house; cytosolic alpha-CA
# Sequence (P43166 whole entry): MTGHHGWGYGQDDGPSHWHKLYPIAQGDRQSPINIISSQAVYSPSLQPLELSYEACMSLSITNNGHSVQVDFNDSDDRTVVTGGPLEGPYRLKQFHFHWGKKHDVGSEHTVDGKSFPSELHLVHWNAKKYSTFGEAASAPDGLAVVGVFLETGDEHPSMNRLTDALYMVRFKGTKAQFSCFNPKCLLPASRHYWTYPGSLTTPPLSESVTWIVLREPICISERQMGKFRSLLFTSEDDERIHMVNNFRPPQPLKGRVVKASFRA
# test-details: stopped-flow CO2 hydration assay, phenol red
# Format: biochemical
# test-settings: read-out: KI (nM)^a / hCA VII (α-CA)
result-type: Ki (nM)
Provide the reading as a plain figure in nM.

See these solved cases before continuing.
Form field Ki, entry CCCCCCCN(C#N)c1ccc(S(N)(=O)=O)cc1 [compound 12, 4-(N-Heptylcyanamido)benzenesulfonamide] : 1.7

Form field Ki, entry CCCCCCCCCCCCCCCCCCN(C#N)c1ccc(S(N)(=O)=O)cc1 : 2.2

***
Form field Ki, entry CN(C#N)c1ccc(S(N)(=O)=O)cc1 [compound 8, 4-(N-Methylcyanamido)benzenesulfonamide] : 13.8

----------
Entries and their Ki values follow.
# system: MscCA
# Construct: recombinant beta-CA, obtained in-house; earlier published as SauCA
# test-details: stopped-flow CO2 hydration assay, phenol red
# Assay type: biochemical, Mammaliicoccus sciuri
# test-settings: […] TRIS pH […] Na2SO4, […] h preincubation, room temperature; read-out: KI (nM)^a / MscCA (β-CA)
Provide the reading as a plain figure in nM.

See these solved cases before continuing.
Form field Ki, entry C=CCN(C#N)c1ccc(S(N)(=O)=O)cc1 [compound 15, 4-(N-Allylcyanamido)benzenesulfonamide] : 5100

Form field Ki, entry CCN(C#N)c1ccc(S(N)(=O)=O)cc1 [compound 9, 4-(N-Ethylcyanamido)benzenesulfonamide] : 3150

Form field Ki, entry CCCCCCCN(C#N)c1ccc(S(N)(=O)=O)cc1 [compound 12, 4-(N-Heptylcyanamido)benzenesulfonamide] : 7190

***
Form field Ki, entry N#CN(Cc1ccccc1)c1ccc(S(N)(=O)=O)cc1 [compound 16, 4-(N-Benzylcyanamido)benzenesulfonamide] : 9360

----------
Entries and their Ki values follow.
# system: hCA XIII (Homo sapiens, UniProt Q8N1Q1)
# Construct: gene CA13; recombinant, obtained in-house; cytosolic alpha-CA
# Sequence (Q8N1Q1 whole entry): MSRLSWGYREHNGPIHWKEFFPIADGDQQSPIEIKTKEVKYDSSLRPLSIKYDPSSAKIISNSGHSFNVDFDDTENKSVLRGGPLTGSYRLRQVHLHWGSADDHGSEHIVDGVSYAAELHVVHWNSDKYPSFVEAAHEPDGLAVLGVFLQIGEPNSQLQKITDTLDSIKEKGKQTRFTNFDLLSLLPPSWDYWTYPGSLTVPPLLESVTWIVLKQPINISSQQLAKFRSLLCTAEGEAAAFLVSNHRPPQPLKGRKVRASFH
# test-details: stopped-flow CO2 hydration assay, phenol red
# Assay type: biochemical
# test-settings: read-out: KI (nM)^a / hCA XIII (α-CA)
Provide the reading as a plain figure in nM.

See these solved cases before continuing.
Form field, Ki with hCA XIII (Homo sapiens, UniProt Q8N1Q1), item CN(C#N)c1ccc(S(N)(=O)=O)cc1 [compound 8, 4-(N-Methylcyanamido)benzenesulfonamide] : 117

Form field, Ki with hCA XIII (Homo sapiens, UniProt Q8N1Q1), item CCCCN(C#N)c1ccc(S(N)(=O)=O)cc1 [compound 10, 4-(N-Butylcyanamido)benzenesulfonamide] : 70.7

Consider the record given below.
Form field, Ki with hCA XIII (Homo sapiens, UniProt Q8N1Q1), item CCCCCCN(C#N)c1ccc(S(N)(=O)=O)cc1 [compound 11, 4-(N-Hexylcyanamido)benzenesulfonamide] : 83
